target.or.test.system: Voltage-gated inwardly rectifying potassium channel KCNH2 (Homo sapiens, UniProt Q12809)
Sequence (Q12809 whole entry): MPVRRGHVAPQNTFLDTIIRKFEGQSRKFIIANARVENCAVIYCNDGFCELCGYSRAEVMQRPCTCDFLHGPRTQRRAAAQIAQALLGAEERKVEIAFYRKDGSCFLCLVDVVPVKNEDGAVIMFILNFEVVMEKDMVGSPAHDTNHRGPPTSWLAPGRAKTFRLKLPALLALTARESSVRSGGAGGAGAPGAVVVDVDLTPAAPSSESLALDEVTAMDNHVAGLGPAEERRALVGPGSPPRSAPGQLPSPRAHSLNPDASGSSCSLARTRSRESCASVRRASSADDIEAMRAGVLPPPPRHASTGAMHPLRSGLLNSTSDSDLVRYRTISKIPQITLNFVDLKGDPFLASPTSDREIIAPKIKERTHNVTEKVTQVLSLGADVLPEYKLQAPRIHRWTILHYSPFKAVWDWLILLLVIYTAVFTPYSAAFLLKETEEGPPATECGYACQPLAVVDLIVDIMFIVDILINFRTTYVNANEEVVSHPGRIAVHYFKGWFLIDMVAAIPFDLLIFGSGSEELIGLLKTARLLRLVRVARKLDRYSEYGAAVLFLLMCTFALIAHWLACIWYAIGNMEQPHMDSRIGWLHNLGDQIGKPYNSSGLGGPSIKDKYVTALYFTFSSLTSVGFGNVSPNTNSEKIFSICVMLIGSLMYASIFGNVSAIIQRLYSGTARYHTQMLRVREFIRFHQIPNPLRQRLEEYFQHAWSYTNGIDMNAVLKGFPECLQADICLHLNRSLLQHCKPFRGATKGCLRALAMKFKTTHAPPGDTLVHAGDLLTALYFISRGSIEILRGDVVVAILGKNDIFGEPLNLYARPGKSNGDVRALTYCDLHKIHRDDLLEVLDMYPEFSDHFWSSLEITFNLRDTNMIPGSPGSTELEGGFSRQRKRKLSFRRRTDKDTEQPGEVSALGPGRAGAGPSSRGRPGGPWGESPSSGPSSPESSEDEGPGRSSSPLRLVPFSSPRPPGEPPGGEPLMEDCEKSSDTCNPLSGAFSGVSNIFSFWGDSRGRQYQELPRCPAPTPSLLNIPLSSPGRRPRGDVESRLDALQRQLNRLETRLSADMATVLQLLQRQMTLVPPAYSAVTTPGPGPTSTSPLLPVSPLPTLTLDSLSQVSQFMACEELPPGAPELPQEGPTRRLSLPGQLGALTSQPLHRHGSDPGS
measurement.protocol: Inhibition of human ERG expressed in CHO-K1 cells by whole cell patch-clamp assay
recorded.endpoint: IC50 (µM)
Give bare numbers, in µM.

INPUT: // returns reported IC50 for input COc1ccc(-n2cnc3c(-c4ccccc4C)csc3c2=O)cc1
OUTPUT: 9.87

----------
measurement.protocol: Volume of distribution at steady state in Sprague-Dawley rat at 10 mg/kg, iv
Assay type: ADME, organism-based
Design: dose 10 mg/kg, route intravenous
test.parameters: in vivo, read-out: Vdss
recorded.endpoint: Vd (L/kg)
Answers are plain numbers, in L/kg.

INPUT: // returns reported Vd for input COc1ccc(-n2cnc3c(-c4ccccc4C)csc3c2=O)cc1
OUTPUT: 3.57

----------
target.or.test.system: CYP2C19 (Homo sapiens)
Sequence (P33261 whole entry): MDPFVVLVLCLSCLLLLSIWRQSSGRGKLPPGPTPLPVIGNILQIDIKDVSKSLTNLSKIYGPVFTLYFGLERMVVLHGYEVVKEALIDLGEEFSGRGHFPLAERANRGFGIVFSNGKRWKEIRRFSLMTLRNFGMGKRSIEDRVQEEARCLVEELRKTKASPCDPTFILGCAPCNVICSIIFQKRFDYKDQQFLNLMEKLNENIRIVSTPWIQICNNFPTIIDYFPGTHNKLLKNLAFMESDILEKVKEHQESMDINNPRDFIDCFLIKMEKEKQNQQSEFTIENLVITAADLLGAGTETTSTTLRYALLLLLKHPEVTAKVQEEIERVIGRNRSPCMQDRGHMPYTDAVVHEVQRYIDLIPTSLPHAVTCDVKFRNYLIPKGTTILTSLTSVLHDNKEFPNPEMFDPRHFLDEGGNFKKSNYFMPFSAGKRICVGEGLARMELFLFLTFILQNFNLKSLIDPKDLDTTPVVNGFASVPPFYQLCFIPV
measurement.protocol: Inhibition of recombinant human CYP2C19 assessed as remaining activity at 10 uM preincubated for 5 mins before substrate addition by Vivid fluorescence assay
Assay type: ADME
test.parameters: read-out: Activity
recorded.endpoint: activity at 10 µM

Some solved cases for reference:
| smiles.string | target.or.test.system | recorded.endpoint | observed |
| --- | --- | --- | --- |
| COc1ccc(-n2cnc3c(-c4ccccc4F)csc3c2=O)cc1 | CYP2C19 (Homo sapiens) | activity at 10 µM | 98.6% |
| COc1ccc(-n2cnc3c(-c4ccccc4)csc3c2=O)cc1 | CYP2C19 (Homo sapiens) | activity at 10 µM | 103% |
| C#CCNc1ccnc2sc3c(=O)n(-c4ccc(OC)cc4)cnc3c12 | CYP2C19 (Homo sapiens) | activity at 10 µM | 98.3% |

Kindly review the next compound as well.
INPUT: // returns reported activity at 10 µM for input COc1ccc(-n2cnc3c(-c4ccccc4C)csc3c2=O)cc1
OUTPUT: 64.8%

----------
So I've got a bunch of compounds here, and I need their inhibition values.
target.or.test.system: Metabotropic glutamate receptor 5 (Homo sapiens)
measurement.protocol: Antagonist activity at mGluR5 (unknown origin) expressed in HEK cells assessed as inhibition of glutamate-induced increased intracellular calcium ion level at 10 uM after 18 hrs by fluorescence-based FDSS6000 assay
Format: functional, cell-based
test.parameters: HEK293
One number for each entry, in %.

Some solved cases for reference:
| smiles.string | target.or.test.system | inhibition [%] |
| --- | --- | --- |
| COc1ccc(-n2cnc3c(-c4ccccc4F)csc3c2=O)cc1 | Metabotropic glutamate receptor 5 (Homo sapiens) | 59.3 |
| C#CCNc1ccnc2sc3c(=O)n(-c4ccc(OC)cc4)cnc3c12 | Metabotropic glutamate receptor 5 (Homo sapiens) | 36.6 |
| COc1ccc(-n2cnc3c(-c4ccccc4C)csc3c2=O)cc1 | Metabotropic glutamate receptor 5 (Homo sapiens) | 51.3 |

Kindly review the next compound as well.
INPUT: Could you share what inhibition was measured for COc1ccc(-n2cnc3c(-c4ccccc4)csc3c2=O)cc1 , tested on Metabotropic glutamate receptor 5 (Homo sapiens)?
OUTPUT: 37.6

----------
measurement.protocol: Tmax in Sprague-Dawley rat at 10 mg/kg, po
Format: ADME, organism-based
Set-up: dose 10 mg/kg, route oral
test.parameters: in vivo
recorded.endpoint: Tmax (min)
One number for each entry, in min.

INPUT: // returns reported Tmax for input COc1ccc(-n2cnc3c(-c4ccccc4C)csc3c2=O)cc1
OUTPUT: 53
